testedTarget: UniProt:P11387
Sequence (whole entry): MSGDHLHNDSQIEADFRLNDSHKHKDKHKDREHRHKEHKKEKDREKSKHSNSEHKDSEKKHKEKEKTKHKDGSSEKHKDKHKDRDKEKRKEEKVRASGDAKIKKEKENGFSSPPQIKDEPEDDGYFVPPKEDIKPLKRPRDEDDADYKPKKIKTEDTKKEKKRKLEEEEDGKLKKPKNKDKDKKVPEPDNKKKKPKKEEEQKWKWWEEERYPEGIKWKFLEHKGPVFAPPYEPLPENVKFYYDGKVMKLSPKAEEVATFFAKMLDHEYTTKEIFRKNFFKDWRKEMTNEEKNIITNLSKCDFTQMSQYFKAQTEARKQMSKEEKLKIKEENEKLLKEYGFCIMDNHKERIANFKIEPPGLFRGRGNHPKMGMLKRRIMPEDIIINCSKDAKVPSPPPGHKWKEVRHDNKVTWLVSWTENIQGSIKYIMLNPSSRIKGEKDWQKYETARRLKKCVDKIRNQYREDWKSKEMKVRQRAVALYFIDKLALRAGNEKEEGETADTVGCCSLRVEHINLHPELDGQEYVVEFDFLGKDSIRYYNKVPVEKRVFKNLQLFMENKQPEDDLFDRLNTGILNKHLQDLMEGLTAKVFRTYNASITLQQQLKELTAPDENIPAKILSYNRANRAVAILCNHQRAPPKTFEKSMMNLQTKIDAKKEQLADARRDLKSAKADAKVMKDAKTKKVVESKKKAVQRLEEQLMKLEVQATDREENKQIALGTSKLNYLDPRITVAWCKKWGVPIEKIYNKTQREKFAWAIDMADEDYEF
assayName: Inhibition of topoisomerase 1-mediated supercoiled pBR322 relaxation assessed as change in band intensity by electrophoresis relative to camptothecin; further: test concentration or dose not given here
Below is a list of entries, each paired with its recorded fold change (FC) value.
Keep the answer to the number alone.

Below, each entry is followed by its recorded fold change (FC) result.
# structureString, fold change (FC)
measured = [
    ("CC[C@@]1(O)C(=O)OCc2c1cc1n(c2=O)Cc2cc3cc(OCC[n+]4cccc(F)c4)ccc3nc2-1.[Br-]", 0.85),
    ("CCc1c2c(nc3ccc(OCC[n+]4ccccc4)cc13)-c1cc3c(c(=O)n1C2)COC(=O)[C@]3(O)CC.[Br-]", 1.12),
]

Task item: Please give measured fold change (FC) of the following entry: CCc1c2c(nc3ccc(OCCC[n+]4cccc(C)c4)cc13)-c1cc3c(c(=O)n1C2)COC(=O)[C@]3(O)CC.[Br-]
Reply: 0.97

* * *

System: MCF7
assayName: Cytotoxicity against human MCF7 cells after 3 days by MTT assay
Assay type: functional, cell-based
measuredEndpoint: IC50 (nM/ml)
Give the number; nM/ml is assumed, so skip it.

Below, each entry is followed by its recorded IC50 result.
# structureString, measuredEndpoint, unitDescriptor, testValue
records = [
    ("CC[C@@]1(O)C(=O)OCc2c1cc1n(c2=O)Cc2cc3cc(OCCCOc4cc(C(F)(F)F)ncn4)ccc3nc2-1", "IC50", "nM/ml", 0.18),
    ("CC[C@@]1(O)C(=O)OCc2c1cc1n(c2=O)Cc2cc3cc(OCCCn4ccnc4)ccc3nc2-1", "IC50", "nM/ml", 0.38),
    ("CCc1c2c(nc3ccc(OCC[n+]4ccccc4)cc13)-c1cc3c(c(=O)n1C2)COC(=O)[C@]3(O)CC.[Br-]", "IC50", "nM/ml", 1.56),
    ("CCc1c2c(nc3ccc(OCC[n+]4cccc(F)c4)cc13)-c1cc3c(c(=O)n1C2)COC(=O)[C@]3(O)CC.[Br-]", "IC50", "nM/ml", 0.25),
    ("CC[C@@]1(O)C(=O)OCc2c1cc1n(c2=O)Cc2cc3c(CN(C)C)c(O)ccc3nc2-1", "IC50", "nM/ml", 0.15),
    ("CCc1c2c(nc3ccc(OCCC[n+]4cccc(F)c4)cc13)-c1cc3c(c(=O)n1C2)COC(=O)[C@]3(O)CC.[Br-]", "IC50", "nM/ml", 1.92),
]

Proceed to the following item.
Task item: Please give measured IC50 of the following entry: CCc1c2c(nc3ccc(OCCC[n+]4cccc(C(C)=O)c4)cc13)-c1cc3c(c(=O)n1C2)COC(=O)[C@]3(O)CC.[Br-]
Reply: 2.81

Source: ChEMBL document CHEMBL1177858
